Test: Relative fluorescence of Spinach derivatives compared to Spinach
Type: biochemical
Details: same concentration of DFHBI in all samples
experimentalReadout: relative fluorescence compared to Spinach

{"molecule": "Spinach-4: derivative of Spinach (nucleic acid, listed as RNA, chemistry not given here) GACGCGACCGAAUGAAAUGGUGAAGGACGGGUCCAGCUGCGGCUGCUUCGGCAGCCGCAGCUUGUUGAGUAGAGUGUGAGCUCCGUAACUGGUCGCGUC", "result": "enhanced fluorescence"}
{"molecule": "Spinach-7: derivative of Spinach (nucleic acid, listed as RNA, chemistry not given here) GACGCGACCGAAUGAAAUGGUGAAGGACGGGUCCAGCCGGCUGCUUCGGCAGCCGGCUUGUUGAGUAGAGUGUGAGCUCCGUAACUGGUCGCGUC", "result": "enhanced fluorescence"}
